- assay: Selectivity ratio of ED50 for antinociceptive activity in male C57BL/6J mouse at 10 mg/kg, ip measured after 10 min by 55 degreeC warm-water tail-withdrawal assay to ED50 for antinociceptive activity in male C57BL/6J mouse preadministered with compound for 10 mins followed by acetic acid administration and measured after 15 to 30 min by Acetic acid stretching assay (AcAS)
- Assay type: functional
Task for the reader: assign each of the following compounds its reported Ratio ED50.
One number for each entry.

Please give Ratio ED50, item by item, for the list that follows.
1. CC(C)[C@H]1CN=C2C=C3N(CCc4ccccc4)CC[C@H](N(C)C)CN3[C@@H](Cc3ccc(O)cc3)CN21
2. CC(C)C[C@H]1CN2C(=CC3=NC[C@H](CCN(C)C)N3C[C@@H]2Cc2ccc(O)cc2)N1CCc1ccccc1
3. CN1CC[C@]23c4c5ccc(O)c4O[C@H]2[C@@H](O)C=C[C@H]3[C@H]1C5
4. CN1CCN(CCN2C(=N)N([C@@H](CCCNC(=N)N)CN3C(=N)NC[C@@H]3Cc3ccc(O)cc3)C[C@@H]2Cc2ccc(O)cc2)CC1

output:
[20.95, 10.73, 3.75, 0.78]

====

- testedOn: Delta-type opioid receptor (Rattus norvegicus)
- Sequence (P33533 whole entry): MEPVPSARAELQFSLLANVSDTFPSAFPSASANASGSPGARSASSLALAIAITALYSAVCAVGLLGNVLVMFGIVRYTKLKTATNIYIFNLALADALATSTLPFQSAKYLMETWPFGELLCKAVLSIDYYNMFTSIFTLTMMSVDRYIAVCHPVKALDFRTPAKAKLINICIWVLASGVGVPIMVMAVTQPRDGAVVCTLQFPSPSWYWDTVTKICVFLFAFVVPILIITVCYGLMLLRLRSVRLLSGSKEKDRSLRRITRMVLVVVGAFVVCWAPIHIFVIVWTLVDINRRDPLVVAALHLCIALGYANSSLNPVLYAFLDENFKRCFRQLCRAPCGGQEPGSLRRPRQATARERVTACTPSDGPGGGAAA
- assay: Displacement of [3H]-DPDPE from rat cortical membrane DOR assessed as inhibition constant incubated for 2.5 hrs by Wallac Betaplate liquid scintillation counting analysis
Entries whose Ki is below 10 nM take Y; entries at or above 10 nM take N.

Field: example entries. Status: answers known.
In [3]: df
Out[3]:
                                inputsmiles  classlabel
0  CC(C)(C)c1ccc(S(=O)(=O)NCCN2C(=N)N([C@@H](Cc3ccc(O)cc3)CN3C(=N)NC[C@@H]3CCCNC(=N)N)C[C@@H]2CCCNC(=N)N)cc1           N
1  CC(C)[C@H]1CN=C2C=C3N(CCN4CCOCC4)[C@@H](Cc4ccc(O)cc4)CN3[C@@H](Cc3ccc(O)cc3)CN21           N
2  CC(C)C[C@H]1CN([C@@H](Cc2ccc(O)cc2)CN2C(=N)NC[C@@H]2CCCNC(=N)N)C(=N)N1CCNS(=O)(=O)c1ccc(C(C)(C)C)cc1           Y
3  CC(C)[C@H]1CN=C2C=C3N(CCc4ccccc4)[C@@H](CCN(C)C)CN3[C@@H](Cc3ccc(O)cc3)CN21           Y
4  CC(C)[C@H]1CN=C2C=C3N(CCc4ccccc4)CC[C@H](N(C)C)CN3[C@@H](Cc3ccc(O)cc3)CN21           N
5  CC(C)[C@H]1CN=C2C=C3N4C[C@H](O)C[C@H]4CN3[C@@H](Cc3ccc(O)cc3)CN21           N

input: In plain terms, does CN1CCN(CCN2C(=N)N([C@@H](CCCNC(=N)N)CN3C(=N)NC[C@@H]3Cc3ccc(O)cc3)C[C@@H]2Cc2ccc(O)cc2)CC1 come in under 10 nM for Ki?
output: N

input: In plain terms, does CC(C)C[C@H]1CN2C(=CC3=NC[C@H](CC(C)C)N3C[C@@H]2Cc2ccc(O)cc2)N1CCN1CCOCC1 come in under 10 nM for Ki?
output: N

input: In plain terms, does CC(C)C[C@H]1CN=C2C=C3N(CCN4CCOCC4)[C@@H](Cc4ccc(O)cc4)CN3[C@@H](Cc3ccc(O)cc3)CN21 come in under 10 nM for Ki?
output: N
